Biological target: GIRK1/4 (Homo sapiens, UniProt P48544+P48549)
Construct: expressed in transfected cells; host or cells: HEK-293
Sequence (P48549 1-501): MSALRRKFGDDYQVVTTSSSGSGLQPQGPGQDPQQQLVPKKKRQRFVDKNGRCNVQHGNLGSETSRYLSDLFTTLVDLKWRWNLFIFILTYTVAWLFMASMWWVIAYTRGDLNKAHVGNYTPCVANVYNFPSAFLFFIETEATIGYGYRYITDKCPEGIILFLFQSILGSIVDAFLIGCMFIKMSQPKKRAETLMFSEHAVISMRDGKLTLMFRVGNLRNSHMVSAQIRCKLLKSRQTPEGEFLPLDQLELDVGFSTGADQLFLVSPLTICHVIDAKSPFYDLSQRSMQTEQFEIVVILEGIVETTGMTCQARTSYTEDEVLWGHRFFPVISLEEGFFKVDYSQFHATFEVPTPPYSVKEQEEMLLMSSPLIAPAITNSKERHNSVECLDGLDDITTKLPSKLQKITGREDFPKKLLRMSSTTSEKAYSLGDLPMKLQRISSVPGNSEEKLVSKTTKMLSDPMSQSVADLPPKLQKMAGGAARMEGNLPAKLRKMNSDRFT
Sequence (P48544 1-419): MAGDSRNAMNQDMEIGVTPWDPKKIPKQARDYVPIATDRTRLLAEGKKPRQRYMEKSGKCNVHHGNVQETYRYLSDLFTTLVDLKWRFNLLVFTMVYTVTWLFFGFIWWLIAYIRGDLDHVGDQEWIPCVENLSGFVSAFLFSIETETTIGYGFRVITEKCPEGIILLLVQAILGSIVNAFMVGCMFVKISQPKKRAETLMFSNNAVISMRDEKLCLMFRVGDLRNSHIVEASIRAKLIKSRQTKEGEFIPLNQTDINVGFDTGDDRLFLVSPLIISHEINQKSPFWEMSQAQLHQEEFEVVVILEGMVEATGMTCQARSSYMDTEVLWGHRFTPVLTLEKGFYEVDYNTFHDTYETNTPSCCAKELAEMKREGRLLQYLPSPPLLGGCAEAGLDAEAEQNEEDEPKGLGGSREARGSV
Assay: Thallium flux assay, HEK-293 cells expressing GIRK1/4
Type: cell-based
Conditions: cell line GIRK1-4; average ± SEM
metric: pEC50
Scale: pEC50 equals -log10([C]), with [C] in mol/L.

Please report pEC50 for the following molecule: Cc1cc(NC(=O)Nc2ccc(F)c(F)c2)n(-c2ccccc2)n1
6.05
